testedTarget: α2β1 integrin (Homo sapiens, UniProt P17301)
Construct: expressed in transfected cells; host or cells: CHO cell clone
Sequence (P17301 30-1181): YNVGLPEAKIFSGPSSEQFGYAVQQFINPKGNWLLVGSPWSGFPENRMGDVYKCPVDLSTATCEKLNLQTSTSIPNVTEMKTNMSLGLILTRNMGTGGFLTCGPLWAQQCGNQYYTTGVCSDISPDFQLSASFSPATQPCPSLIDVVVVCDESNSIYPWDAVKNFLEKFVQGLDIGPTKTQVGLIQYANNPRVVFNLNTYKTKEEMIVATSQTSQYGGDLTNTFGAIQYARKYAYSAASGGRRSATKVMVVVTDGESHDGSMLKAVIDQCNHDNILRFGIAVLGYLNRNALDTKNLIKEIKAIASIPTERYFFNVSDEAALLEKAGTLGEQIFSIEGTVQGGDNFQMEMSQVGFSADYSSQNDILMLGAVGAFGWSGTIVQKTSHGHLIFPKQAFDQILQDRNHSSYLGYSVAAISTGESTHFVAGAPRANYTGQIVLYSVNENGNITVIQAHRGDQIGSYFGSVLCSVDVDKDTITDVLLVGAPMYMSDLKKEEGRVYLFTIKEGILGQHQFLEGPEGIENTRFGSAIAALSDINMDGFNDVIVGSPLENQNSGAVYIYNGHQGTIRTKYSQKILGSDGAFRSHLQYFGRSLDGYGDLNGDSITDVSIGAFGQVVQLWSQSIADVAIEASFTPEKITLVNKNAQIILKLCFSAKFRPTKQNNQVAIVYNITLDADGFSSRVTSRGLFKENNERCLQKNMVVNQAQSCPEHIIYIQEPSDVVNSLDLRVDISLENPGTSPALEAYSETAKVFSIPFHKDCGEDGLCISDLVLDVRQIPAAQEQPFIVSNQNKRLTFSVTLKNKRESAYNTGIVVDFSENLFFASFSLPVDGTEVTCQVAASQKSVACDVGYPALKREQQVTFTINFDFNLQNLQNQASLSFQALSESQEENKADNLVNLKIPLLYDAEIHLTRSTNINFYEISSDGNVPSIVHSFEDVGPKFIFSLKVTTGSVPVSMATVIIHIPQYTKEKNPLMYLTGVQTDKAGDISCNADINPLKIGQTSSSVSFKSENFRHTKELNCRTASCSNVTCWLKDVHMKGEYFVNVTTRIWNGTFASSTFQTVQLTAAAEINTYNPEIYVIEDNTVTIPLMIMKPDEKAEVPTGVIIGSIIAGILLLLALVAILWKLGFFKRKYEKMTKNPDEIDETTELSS
protocolSummary: CHO-α2β1 cell adhesion on type I collagen
Assay type: cell-based
details: CHO cells expressing wild type α2 integrin on collagen type I coated wells, 2 h
experimentalEndpoint: inhibition at 50 µM
Note: state the figure and append the unit.

Request the reported inhibition at 50 µM associated with Cn1cccc1C(=O)Nc1ccc(NS(=O)(=O)c2cccc(-c3ccc(F)cc3)c2)cc1 [Compound 442] 21%

Field entry: CN(C)c1ccc(N(CCN2CCOCC2)S(=O)(=O)c2cccc(-c3ccc(F)cc3)c2)cc1 [Compound 355] 18%

Moving on to the next compound: CN(C)c1ccc(N(CCn2ccnc2)S(=O)(=O)c2cccc(-c3ccc(F)cc3)c2)cc1 [Compound 358] 71%

Next compound: Cc1cc(NC(=O)c2ccc(NS(=O)(=O)c3cccc(-c4ccc(F)cc4)c3)cc2)no1 [Compound 456] 13%

Now this one: CN(C)CCN(c1ccc(N(C)C)cc1)S(=O)(=O)c1cccc(-c2ccc(F)cc2)c1 [Compound 354] 78%

And CN(c1ccc(NC(=O)N2CCNC2=O)cc1)S(=O)(=O)c1cccc(-c2ccc(F)cc2)c1 [Compound 430] ? 53%

Check O=C(c1ccc(F)cc1)c1ccc(NS(=O)(=O)c2cccc(-c3ccc(F)cc3)c2)cc1 [Compound 458] too. 66%

Again, but for CN(C)c1ccc(N(CCO)S(=O)(=O)c2cccc(-c3ccc(F)cc3)c2)cc1 [Compound 359] 42%

* * *

Kindly supply the reported inhibition at 50 µM values for the records listed here.
testedTarget: α2β1 integrin (Homo sapiens, UniProt P17301)
Construct: expressed in transfected cells; host or cells: CHO cell clone
protocolSummary: CHO-α2β1 cell adhesion on type I collagen
Type: cell-based
details: CHO cells expressing wild type α2 integrin on collagen type I coated wells, 2 h
Numbers only here, please. The scale is %.

Requested read-out: inhibition at 50 µM. Entry: O=C(c1ccccc1)c1cccc(NS(=O)(=O)c2cccc(-c3ccc(F)cc3)c2)c1 [Compound 432] 72

Same thing, different compound: CC(=O)c1ccc(NS(=O)(=O)c2cccc(-c3ccc(F)cc3)c2)cc1 [Compound 383] 26

Moving on to COCCN(c1ccc(N(C)C)cc1)S(=O)(=O)c1cccc(-c2ccc(F)cc2)c1 [Compound 353] 11

One more compound: N#Cc1ccc(NS(=O)(=O)c2cccc(-c3ccc(F)cc3)c2)cc1 [Compound 448] 58

Moving on to O=S(=O)(Nc1cccc(-c2ccc(F)cc2)c1)c1ccc(Cl)cc1Cl [Compound 403] 56

Now the compound O=[N+]([O-])c1ccc(NS(=O)(=O)c2cccc(-c3ccc(F)cc3)c2)cc1 [Compound 440] 59

Follow-up entry: O=C(c1ccccc1)c1ccc(NS(=O)(=O)c2cccc(-c3ccc(F)cc3)c2)cc1 [Compound 384] 65

Follow-up item: O=S(=O)(Nc1ccc(-c2cnco2)cc1)c1cccc(-c2ccc(F)cc2)c1 [Compound 378] 22
